- assayed target: T1, sIL-6R (soluble IL-6 receptor; SBH Sciences) (human, UniProt P08887 20-365)
- T1 construct: also called human IL-6R
- T1 sequence: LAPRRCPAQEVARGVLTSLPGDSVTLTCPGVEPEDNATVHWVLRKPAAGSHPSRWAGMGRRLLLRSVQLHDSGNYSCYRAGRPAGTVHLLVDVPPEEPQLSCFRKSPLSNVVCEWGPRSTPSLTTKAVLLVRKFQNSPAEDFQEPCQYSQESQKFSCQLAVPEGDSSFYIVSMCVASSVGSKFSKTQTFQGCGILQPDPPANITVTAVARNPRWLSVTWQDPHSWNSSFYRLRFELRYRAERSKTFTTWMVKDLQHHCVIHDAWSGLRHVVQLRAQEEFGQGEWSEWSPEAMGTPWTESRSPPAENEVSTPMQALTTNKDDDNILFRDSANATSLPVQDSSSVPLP
- procedure details: SPR (BIAcore 3000), antibody on chip, sIL-6R analyte, 25 C
Quick reference: koff of the listed items.
reported metric: koff

INSERT INTO results (binder, reported_metric, observed_result) VALUES
  ('7# (antibody, human IgG1, kappa, V domains shown, also called Sample # 7) VH: QVQLQESGPGLVRPSQTLSLTCTVSGYSITSDHAWSWVRQPPGRGLEWIGYISYSGITTYNPSLKSRVTMLRDTSKNQFSLRLSSVTAADTAVYYCARSLARTTAIDYWGQGSLVTVSS VL: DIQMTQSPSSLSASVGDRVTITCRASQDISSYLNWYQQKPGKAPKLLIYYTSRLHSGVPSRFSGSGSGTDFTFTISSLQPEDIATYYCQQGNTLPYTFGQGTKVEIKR', 'koff', '0.000177 s⁻¹'),
  ('14# (antibody, human IgG1, kappa, V domains shown, also called Sample # 14) VH: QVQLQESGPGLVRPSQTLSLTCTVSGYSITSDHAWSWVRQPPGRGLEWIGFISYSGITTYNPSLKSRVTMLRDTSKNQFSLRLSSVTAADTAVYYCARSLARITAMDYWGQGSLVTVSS VL: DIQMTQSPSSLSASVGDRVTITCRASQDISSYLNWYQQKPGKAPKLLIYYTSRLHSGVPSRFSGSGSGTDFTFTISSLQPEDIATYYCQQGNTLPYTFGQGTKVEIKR', 'koff', '5.69e-05 s⁻¹'),
  ('5# (antibody, human IgG1, kappa, V domains shown, also called Sample # 5) VH: QVQLQESGPGLVRPSQTLSLTCTVSGYSITSDHAWSWVRQPPGRGLEWIGFISYSGITTYNPSLKSRVTMLRDTSKNQFSLRLSSVTAADTAVYYCARSLARTTAMDYWGQGSLVTVSS VL: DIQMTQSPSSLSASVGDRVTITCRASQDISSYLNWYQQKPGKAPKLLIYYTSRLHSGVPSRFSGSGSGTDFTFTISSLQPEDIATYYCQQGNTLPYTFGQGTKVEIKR', 'koff', '0.000234 s⁻¹'),
  ('18# (antibody, human IgG1, kappa, V domains shown, also called Sample # 18) VH: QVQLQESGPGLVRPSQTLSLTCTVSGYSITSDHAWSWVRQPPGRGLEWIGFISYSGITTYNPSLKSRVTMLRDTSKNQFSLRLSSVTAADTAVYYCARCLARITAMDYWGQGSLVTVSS VL: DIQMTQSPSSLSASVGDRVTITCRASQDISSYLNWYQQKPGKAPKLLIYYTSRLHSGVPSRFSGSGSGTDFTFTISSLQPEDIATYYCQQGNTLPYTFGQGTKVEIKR', 'koff', '4.73e-05 s⁻¹');
